Test system: Saccharomyces cerevisiae
Test: protein stability index of tFT-peptide fusion (C-terminal peptide) (PSI (0-1 scale)); higher = more stable (slower turnover);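 further: PSI is a weighted mean of sequencing reads over stability bins, variants kept only with over 10 reads, mCherry proximal and sfGFP distal, peptide attached via GGGS linker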
Details: genetic background: wild type; temperature: 30 C
So basically every entry gets a class from its protein stability index, ranges being one: < 0.6; two: ≥ 0.6 and < 0.7; three: ≥ 0.7

Query block: # bin lookup: classify `SVKGRVPLYVSE` by its protein stability index
Result block: two

Query block: Consider `LLSPPPTPFPLP` . To which protein stability index class does it belong?
Result block: two

Query block: Categorize the following entry: `WVGGVACGAGGG`
Result block: two

* * *

System: Saccharomyces cerevisiae
Test: protein stability index of tFT-peptide fusion (C-terminal peptide) (PSI (0-1 scale)); higher = more stable (slower turnover)
Details: genetic background: cdc34-1; temperature: 37 C
Metric Name: protein stability index
Provide a numeric answer; units are not to be included.

The examples below pair each entry with its known result.
> print(dat)
   sequence.string  readout.value
1     PLPSEKAPTLLL          0.686
2     LCRCPVGVFVLL          0.516
3     RKGQNKKRNKIY           0.75
4     VVFVVGAPPVLC          0.476
5     WCGLFCRSVFVV          0.282
6     VCYLMRSLTFAY          0.497

Measured protein stability index (Saccharomyces cerevisiae), entry `YFYIRLGIAYMM` : 0.421

Bench note, Saccharomyces cerevisiae: entry `LWCLVWGGVWGV` , its protein stability index = 0.458

protein stability index for Saccharomyces cerevisiae with input `LLPTSVFLPSLF` equals 0.691

// protein stability index (Saccharomyces cerevisiae) for `LSLPTPLPSPPA` = 0.656

Saccharomyces cerevisiae data for `FVLWYFCCVGCM` ; its protein stability index: 0.241

Tested on Saccharomyces cerevisiae, the item `PYVHPFRCYWVL` showed protein stability index equal to 0.589

Value (protein stability index, Saccharomyces cerevisiae) for record `PFRSAYYLLFLL` = 0.496

Value sought: protein stability index, system Saccharomyces cerevisiae, item `FLFSSLFCFLFL` . Result: 0.461

Hey, Saccharomyces cerevisiae data for `CPMFVKFFFCLY` : protein stability index came out at 0.448
